Value source: patent US12528801B2

- assayTarget: hTRPM8 (Homo sapiens, UniProt Q7Z2W7)
- Construct: expressed in transfected cells
- Sequence (Q7Z2W7 whole entry): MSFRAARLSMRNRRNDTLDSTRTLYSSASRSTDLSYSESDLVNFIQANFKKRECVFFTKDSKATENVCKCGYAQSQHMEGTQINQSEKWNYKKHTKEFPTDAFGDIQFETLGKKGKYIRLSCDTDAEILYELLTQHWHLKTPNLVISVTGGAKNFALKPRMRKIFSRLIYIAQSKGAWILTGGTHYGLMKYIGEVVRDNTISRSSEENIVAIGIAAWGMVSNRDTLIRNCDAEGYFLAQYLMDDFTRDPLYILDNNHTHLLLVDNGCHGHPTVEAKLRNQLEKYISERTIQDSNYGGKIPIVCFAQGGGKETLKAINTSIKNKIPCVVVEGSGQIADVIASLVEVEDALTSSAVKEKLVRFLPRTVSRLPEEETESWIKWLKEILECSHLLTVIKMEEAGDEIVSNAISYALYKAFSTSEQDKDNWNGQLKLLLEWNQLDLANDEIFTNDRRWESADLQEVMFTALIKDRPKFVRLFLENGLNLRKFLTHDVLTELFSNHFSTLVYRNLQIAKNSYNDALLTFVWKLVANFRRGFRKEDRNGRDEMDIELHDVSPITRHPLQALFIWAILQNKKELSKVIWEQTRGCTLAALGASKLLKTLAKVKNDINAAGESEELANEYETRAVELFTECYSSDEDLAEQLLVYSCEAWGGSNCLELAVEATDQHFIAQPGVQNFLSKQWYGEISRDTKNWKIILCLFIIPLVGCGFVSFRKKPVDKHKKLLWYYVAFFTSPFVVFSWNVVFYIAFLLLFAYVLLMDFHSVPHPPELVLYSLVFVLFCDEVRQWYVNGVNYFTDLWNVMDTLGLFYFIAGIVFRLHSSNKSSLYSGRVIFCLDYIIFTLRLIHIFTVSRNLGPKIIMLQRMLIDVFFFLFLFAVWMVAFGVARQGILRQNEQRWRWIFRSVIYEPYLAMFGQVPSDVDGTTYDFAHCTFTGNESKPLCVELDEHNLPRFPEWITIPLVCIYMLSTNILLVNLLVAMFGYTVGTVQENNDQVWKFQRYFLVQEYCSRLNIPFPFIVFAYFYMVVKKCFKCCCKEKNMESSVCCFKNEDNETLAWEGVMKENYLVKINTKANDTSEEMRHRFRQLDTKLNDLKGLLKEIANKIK
- testDescription: Assay on TRPM8 modulators: calcium imaging (Fluo-4, Flexstation) in HEK293 cell line stably expressing hTRPM8
- Assay type: cell-based
- testContext: HEK293 cells stably expressing hTRPM8; calcium influx, Fluo-4, Flexstation 3; sigmoidal dose-response fit
quantityName: EC50

molecule="CSC(C)C(=O)N1CCCCC1c1nc(-c2ccccc2C)c[nH]1 (stereo not drawn)" assaytarget="hTRPM8 (Homo sapiens, UniProt Q7Z2W7)" observed="50 to 300 nM"
molecule="CCCC(=O)N1CCCCC1c1nc(-c2ccccc2)c[nH]1 (stereo not drawn)" assaytarget="hTRPM8 (Homo sapiens, UniProt Q7Z2W7)" observed="300 to 1000 nM"
molecule="COc1ccc(-c2cnc(C3CCCCN3C(=O)C(C)SC)[nH]2)c(C)c1 (stereo not drawn)" assaytarget="hTRPM8 (Homo sapiens, UniProt Q7Z2W7)" observed="< 50 nM"
molecule="CSC(C)C(=O)N1CCCCC1c1nc(-c2ccsc2)c[nH]1 (stereo not drawn)" assaytarget="hTRPM8 (Homo sapiens, UniProt Q7Z2W7)" observed="50 to 300 nM"
molecule="CCC(C)C(=O)N1CCCCC1c1ncc(-c2ccc(C)s2)[nH]1 (stereo not drawn)" assaytarget="hTRPM8 (Homo sapiens, UniProt Q7Z2W7)" observed="< 50 nM"
molecule="COc1ncc(-c2cnc(C3CCCCN3C(=O)C(C)SC)[nH]2)cn1 (stereo not drawn)" assaytarget="hTRPM8 (Homo sapiens, UniProt Q7Z2W7)" observed="300 to 1000 nM"
molecule="COCC(OC)C(=O)N1CCCCC1c1nc(-c2ccccc2)c[nH]1 (stereo not drawn)" assaytarget="hTRPM8 (Homo sapiens, UniProt Q7Z2W7)" observed="1000 to 35000 nM"
molecule="CSC(C)C(=O)N1CCCCC1c1nc(-c2ccc(S(C)(=O)=O)cc2)c[nH]1 (stereo not drawn) [Compound 34]" assaytarget="hTRPM8 (Homo sapiens, UniProt Q7Z2W7)" observed="1000 to 35000 nM"
molecule="O=C(C1CSC1)N1CCCCC1c1nc(-c2ccccc2)c[nH]1 (stereo not drawn)" assaytarget="hTRPM8 (Homo sapiens, UniProt Q7Z2W7)" observed="300 to 1000 nM"
